# Read-out: Interleukin-8 (IL8), CXCL8 (gene 3576)
# TEST_DETAILS: BSK_CASM3C_IL8: BioMAP Diversity Plus: CASM3C Assay for Interleukin-8 (IL8) Biomarker Activity (AID 2283042);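 note: IL-8 protein level quantified by ELISA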
# CONDITION_CONTEXT: primary human coronary artery smooth muscle cells; actives raise or lower the signal
The source made the active and inactive calls. Rule for the calls: active = hit-call score of the fitted dose curve at least 0.9, where 1 is the maximum; inactive = score below 0.9.
Assign a class; possible classes are true = active, false = inactive

Here are 3 compounds together with their reported answers.
INSERT INTO results (compound, cat) VALUES
  ('Oc1ccccc1', 'false'),
  ('OC12N=C(c3ccccc3)SC1Cc1cc(Cl)ccc12 (stereo not drawn)', 'false'),
  ('CCCCOC(=O)c1ccc(O)cc1', 'false');

Query: Could you kindly confirm the outcome this assay logged for CC1(C)NC(=O)N(c2ccc([N+](=O)[O-])c(C(F)(F)F)c2)C1=O ?
Result: false

Query: Try this compound too: CCN(CC)C(=O)c1cc(S(=O)(=O)Cc2ccccc2)c(N2CCC(c3ccccc3)CC2)cc1N(CC)CCN(C)C
Result: true

Query: Try this compound too: CC(=O)N1CCN(c2ccc(OC[C@H]3CO[C@](Cn4ccnc4)(c4ccc(Cl)cc4Cl)O3)cc2)CC1
Result: false

Query: Try this compound too: Cc1cc2c(cc1C(F)(F)F)N(C(=O)Nc1ccc(Oc3cccnc3C)nc1)CC2
Result: false

Query: Try this compound too: Cc1oc2c(NC(=O)c3c(Cl)cccc3Cl)cccc2c1C(C)(C)O
Result: false

Query: Try this compound too: CN(C)C(=O)C1(N2CCCCC2)CCN(CC[C@@]2(c3ccc(Cl)c(Cl)c3)CN(C(=O)c3ccccc3)CCO2)CC1
Result: true

Query: Try this compound too: CCCCCCCCCCCO
Result: false

Query: Try this compound too: CCCCCCCCCCCCO
Result: true

Query: Try this compound too: CN1C(=O)N(c2ccccc2Br)Cc2cnc(Nc3ccc4c(c3)OCC(CO)O4)nc21 (stereo not drawn)
Result: true

Query: Try this compound too: CC[C@@H]1C[C@H](N(Cc2cc(C(F)(F)F)cc(C(F)(F)F)c2)C(C)=O)c2cc(C(F)(F)F)ccc2N1C(=O)OC(C)C
Result: false

Query: Try this compound too: c1ccc2n[nH]nc2c1
Result: false

Query: Try this compound too: NC(=O)c1nc(-c2cccc(-c3cc(F)ccc3OCC(F)(F)C(F)(F)F)c2)n[nH]1
Result: false

Query: Try this compound too: COc1cc(C(=O)NC2CCN(C)CC2)ccc1Nc1ncc2c(n1)N(C1CCCC1)CC(F)(F)C(=O)N2C
Result: true

Query: Try this compound too: CCCCCCCCN(C)CCCCCCCC
Result: false
